- Test system: HOP-62 NSCLC
- experiment: NCI tumour cell line growth inhibition, 48 h; in the data active = GI50 below about 0.43 µM; inactive = the rest
Write down one outcome, taken from class 1 (active), class 0 (inactive)

Worked examples, 7 compounds total:
- compound: "Cc1cc2nc3c4ccccc4n(CCN(C)C)c3nc2cc1C"
  target-desc: "HOP-62 NSCLC"
  category-label: "class 0"
- compound: "COc1ccc(-n2cc(-c3ccc(OC)c(OC)c3)nc2SCc2ccccc2)cc1Cl"
  target-desc: "HOP-62 NSCLC"
  category-label: "class 0"
- compound: "CN(NC(=O)CC(=O)NN(C)C(=S)c1ccc(Cl)cc1)C(=S)c1ccc(Cl)cc1"
  target-desc: "HOP-62 NSCLC"
  category-label: "class 0"
- compound: "CC(=O)N[C@@H](Cc1ccc(OP(=O)(O)O)cc1)C(=O)N[C@H]1CCC(=O)N2CCC[C@@H](C(=O)NCc3ccc(O)cc3)N2C1=O"
  target-desc: "HOP-62 NSCLC"
  category-label: "class 0"
- compound: "CS[C@@]1(C(=O)Nc2ccc3[nH]nc(-c4ccc(OC(C)C)nc4)c3c2)CCN(CC(=O)N2CC=C(c3ccc(-c4ncn(C)n4)cc3)CC2)C1"
  target-desc: "HOP-62 NSCLC"
  category-label: "class 1"
- compound: "N#CC(C#N)=Cc1ccc(-c2ccc(-c3nc4ccccc4o3)cc2)o1"
  target-desc: "HOP-62 NSCLC"
  category-label: "class 0"
- compound: "O=C(Nc1ccc(S(=O)(=O)NC2CCCCCC2)cc1)C(c1ccccc1)S(=O)(=O)c1ccc(F)cc1 (stereo not drawn)"
  target-desc: "HOP-62 NSCLC"
  category-label: "class 0"

We now examine a further compound.
Req: Query: recorded result category for CC(=O)OCC(=O)C1(O)C(C)CC2C3C=C(C)C4=Cc5c(cnn5-c5ccccc5)CC4(C)C3C(O)CC21C (stereo not drawn) in this test
Resp: class 0

----------
- System: RXF 393 renal
- experiment: NCI tumour cell line growth inhibition, 48 h; in the data active means GI50 below about 0.43 µM; inactive means the rest
Write down one outcome, taken from 1 (yes) = active, 0 (no) = inactive

Worked examples, 5 compounds total:
- compound: "O=C(CC1(O)C(=O)Nc2c(Cl)ccc(Cl)c21)c1ccc(C2CC2)cc1 (stereo not given)"
  category-label: "0 (no)"
- compound: "CCNCCNc1cc(-c2cccc(C(F)(F)F)c2)c(C#N)c2nc3ccccc3n12"
  category-label: "0 (no)"
- compound: "CC(=O)OCC(=O)C1(O)C(C)CC2C3C=C(C)C4=Cc5c(cnn5-c5ccccc5)CC4(C)C3C(O)CC21C (stereo not given)"
  category-label: "0 (no)"
- compound: "COc1ccc(-c2cncn2-c2cc(OC)c(OC)c(OC)c2)cc1F"
  category-label: "1 (yes)"
- compound: "Cc1c(N2C(=O)/C(=C\\c3ccc(N(C)C)cc3)N=C2c2ccccc2)c(=O)n(-c2ccccc2)n1C"
  category-label: "0 (no)"

Req: Query: recorded result category for COc1ccc(-n2sc(=O)n(Cc3ccc(COC(=O)C(C)c4ccc(CC(C)C)cc4)cc3)c2=O)cc1 (stereo not given) in this test
Resp: 0 (no)

----------
Measured TGI accompanies every entry in the list below.
- Tested on: SK-MEL-2 melanoma
- experiment: NCI tumour cell line growth inhibition, 48 h

See these solved cases before continuing.
- molecule: "C=C1CC(C/C=C(\\C)CC2CC(=C)C(=O)O2)OC1=O (stereo unspecified)"
  TGI: "> 100 µM"
- molecule: "CO[C@H](c1ccccc1)[C@H](C)N(C)c1ccc2ccccc2c1C1=NC(C)(C)CO1"
  TGI: "29.7 µM"

Req: Report TGI for FC(F)(F)C1(C(F)(F)F)C2CCC3(CC(F)(F)C(F)(F)S3)C1C2 (stereo unspecified) please.
Resp: 49.1 µM

Req: Likewise for COP(=O)(C(/C=C/c1ccccc1)OC(C)=O)[C@@H]1CCCC[C@H]1N(CC(C)(C)C)C(C)=O (stereo partly specified) ?
Resp: 29.8 µM

Req: Likewise for N#CC(c1ccccc1)N(CCc1ccccc1)C(=O)Oc1ccccc1 (stereo unspecified) ?
Resp: > 100 µM

Req: Likewise for `COc1cccc(-c2cc(=O)c3cccnc3[nH]2)c1` ?
Resp: > 100 µM

Req: Likewise for `CN(CC#N)C(=O)Cc1ccc([N+](=O)[O-])cc1` ?
Resp: > 10 µM

Req: Likewise for `N#C/C(=C\c1ccc(O)cc1O)C(N)=O` ?
Resp: > 100 µM

Req: Likewise for COc1ccc(C2C3=C(COC3=O)N(CCO)c3cc4c(cc32)OCCO4)cc1OC (stereo unspecified) ?
Resp: 3.65 µM
